tested on: SW480 cells; assay: Cytotoxicity assay, CellTiter-Glo 2.0, SW480 cells; assay type: cell-based; settings: SW480, human colon cancer cell line expressing kRAS G12V; 48 hours
experimentalEndpoint: IC50 (nM)
Answers are plain numbers, in nM.

molecule `Cc1nc(-c2ccc(CNC(=O)c3cc(CC(C)C)nn3C)cc2)no1` , IC50 observed: 232

----------
test: Pharmacokinetic study in mice; format: in vivo; conditions: mouse; CD-1 mice, ip, 3 mg/kg, plasma; read-out: Concentrationlast
experimentalEndpoint: concentration at 8 Hour
Give the figure together with its unit, number first.

compound `Cc1nc(-c2ccc(CNC(=O)c3cc(CC(C)C)nn3C)cc2)no1` , concentration at 8 Hour observed: 110 ng/mL

----------
experiment: Pharmacokinetic study in mice; format: in vivo; settings: mouse; CD-1 mice, ip, 10 mg/kg, plasma; read-out: Concentrationlast
experimentalEndpoint: concentration at 4 Hour (ng/mL)
One number for each entry, in ng/mL.

compound `c1ccc(-n2cc(CN3CCN(c4ncnc5ccccc45)CC3)cn2)cc1` , concentration at 4 Hour observed: 150

----------
assay: Pharmacokinetic study in mice; format: in vivo; conditions: CD-1, mouse, plasma, ip, 10 mg/kg, CD-1 mice, 10 mg/kg, plasma, text statement, read-out: Vz/F
experimentalEndpoint: Vd/F

compound `c1ccc(-n2cc(CN3CCN(c4ncnc5ccccc45)CC3)cn2)cc1` , Vd/F observed: > 3 L/kg

----------
experiment: Pharmacokinetic study in mice; type: in vivo; conditions: CD-1, mouse, plasma, ip, 10 mg/kg, CD-1 mice, 10 mg/kg, plasma, read-out: Vz/F
experimentalEndpoint: Vd/F (L/kg)
Answers are plain numbers, in L/kg.

compound `c1ccc(-n2cc(CN3CCN(c4ncnc5ccccc45)CC3)cn2)cc1` , Vd/F observed: 3.19
